# Tested on: FXR:RXRa (NR concentration 270 nM, RXRa partner concentration 90 nM)
# assay-notes: PBM binding z-score (relative to random genomic background probes); higher = stronger binding; sequences stand for … in GC…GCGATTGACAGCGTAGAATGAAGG
measured-attribute: PBM binding z-score
# print the numeric value only

Some sequences with recorded PBM binding z-score:
>  <residue-string>
AGAAAGAGGTTACCAAAGATCAGGGAAACGCTTG

>  <measured-attribute>
PBM binding z-score

>  <endpoint-result>
2.31

$$$$
>  <residue-string>
CGAACGAGGGCATGAGTTGTTAGCAAATGCCGAT

>  <measured-attribute>
PBM binding z-score

>  <endpoint-result>
0.401

$$$$
>  <residue-string>
TCTTGTAGATCTAAGGTTAAGAAAGCCGAAGCCT

>  <measured-attribute>
PBM binding z-score

>  <endpoint-result>
0.97

$$$$
>  <residue-string>
CCTTACGGGTCTCTGACAGGTTATAGCATTTGGA

>  <measured-attribute>
PBM binding z-score

>  <endpoint-result>
-0.234

$$$$

## Task So what's the measured PBM binding z-score for this one? `CTTCGGAGGACAGAAGGTCAGAGCTGTCCGCTTT`
## Result 1.6

## Task So what's the measured PBM binding z-score for this one? `CGTGCAAGGTCAAAGGTCAGTGAAGAGATGACGG`
## Result 8.16

## Task So what's the measured PBM binding z-score for this one? `TCATATAGGTAATACAGGAGAAAGTCGGCATCTA`
## Result 0.853

## Task So what's the measured PBM binding z-score for this one? `TCATATAGGTAAACAGGTGGAAGTCCGTAAGTTA`
## Result 0.72

## Task So what's the measured PBM binding z-score for this one? `CCGACTGGGGCAAAGGGTACCATACTCAGTACGA`
## Result -0.124

## Task So what's the measured PBM binding z-score for this one? `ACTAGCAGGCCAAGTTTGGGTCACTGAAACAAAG`
## Result 0.428

## Task So what's the measured PBM binding z-score for this one? `ATCGAAAGGCCGTGAGGTGAGTATACAGAAAGGC`
## Result 0.424

## Task So what's the measured PBM binding z-score for this one? `ATACCAAGGTGATCGTGAGGTCGTTGAAACTAAC`
## Result 2.15

## Task So what's the measured PBM binding z-score for this one? `CCTAGGTGGTCAGGAGGTCACACACCGGATATGA`
## Result 3.9

###

# Tested on: RARg homodimer (NR concentration 270 nM)
# assay-notes: PBM binding z-score (relative to random genomic background probes); higher = stronger binding; sequences stand for … in GC…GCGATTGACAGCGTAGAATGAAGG
Rule: PBM binding z-score of 4 or more gives true (1); anything lower gives false (0).

Reference set, count: 5
>  <residue-string>
AGGCAAAGTTCATCTAGGTAACGTAAGATATGCT

>  <tested-on>
RARg homodimer (NR concentration 270 nM)

>  <category>
true (1)

$$$$
>  <residue-string>
TCTTGTGGATCAATAGAGGTTAAGAAAGTGCGCT

>  <tested-on>
RARg homodimer (NR concentration 270 nM)

>  <category>
false (0)

$$$$
>  <residue-string>
ATACCAAGGTGATCGTGTGGTCGTTGATACTAAC

>  <tested-on>
RARg homodimer (NR concentration 270 nM)

>  <category>
false (0)

$$$$
>  <residue-string>
ATCTCTAGGTAAGACTCAGATCAGTGAAGAACGC

>  <tested-on>
RARg homodimer (NR concentration 270 nM)

>  <category>
false (0)

$$$$
>  <residue-string>
CCTTACGTGTCAAGGTTATAGCACGGGTGGTACG

>  <tested-on>
RARg homodimer (NR concentration 270 nM)

>  <category>
false (0)

$$$$

With those in mind, consider the next sequence.
## Task I'd appreciate it if you could say whether `CCTACTGGGCCACGAAAGGTCATTGGTTCAGTGA` has PBM binding z-score at least equal to 4.
## Result true (1)
